System: T. b. brucei Lister 427
Type: cell-based, Trypanosoma brucei brucei
Conditions: first pass screen at 4 μM
MEASUREMENT NAME: activity against T. b. brucei, in words

[[record]]
compound = "COc1cccc(/C=C/C(=O)/C=C/c2cccc(OC)c2)c1 [Compound 28]"
subject_of_test = "T. b. brucei Lister 427"
measurement_name = "activity against T. b. brucei, in words"
measurement = "inactive"

[[record]]
compound = "COc1ccc(/C=C/C(=O)CC(=O)/C=C/c2ccc(OC)c(OC)c2)cc1OC [Compound 8]"
subject_of_test = "T. b. brucei Lister 427"
measurement_name = "activity against T. b. brucei, in words"
measurement = "inactive"

